tested on: RAW264.7 cells; assay: Reactive oxygen species (ROS) level, DCFDA, RAW264.7; format: cell-based, murine; conditions: 30 μM, 4 hr
MEASURED PROPERTY: RAW264.7 ROS Level, Relative fold (RF) (fold)

>>> meas_value("O=c1cc(-c2ccc(OCCOCCN(Cc3ccccn3)Cc3ccccn3)cc2)oc2ccccc12")
1.4
>>> meas_value("O=c1cc(-c2ccc(OCCOCCN(CCOCCOc3ccc(-c4cc(=O)c5ccccc5o4)cc3)Cc3ccncc3)cc2)oc2ccccc12")
1.4
>>> meas_value("N=C(N)c1ccc(OCCCCCOc2ccc(C(=N)N)cc2)cc1")
1.2
>>> meas_value("C[C@@H]1[C@H](O)[C@@H](C)/C=C/C=C/C=C/C=C/C=C/C=C/C=C/[C@H](O[C@@H]2O[C@H](C)[C@@H](O)[C@H](N)[C@@H]2O)C[C@@H]2O[C@](O)(C[C@@H](O)C[C@@H](O)[C@H](O)CC[C@@H](O)C[C@@H](O)CC(=O)O[C@H]1C)C[C@H](O)[C@H]2C(=O)O")
1.6
>>> meas_value("CC(C)(C)OO [tert-butyl hydroperoxide]")
2.9

###

system: L. donovani Ld39 promastigotes; test: Anti-promastigote activity (MTS assay), L. donovani Ld39; type: cell-based; conditions: Leishmania donovani, 72 hours
MEASURED PROPERTY: log10 of IC50 (log10 of the value in µM)

>>> meas_value("NC[C@@H]1O[C@H](O[C@H]2[C@@H](O)[C@H](O[C@@H]3[C@@H](O)[C@H](N)C[C@H](N)[C@H]3O[C@H]3O[C@H](CO)[C@@H](O)[C@H](O)[C@H]3N)O[C@@H]2CO)[C@H](N)[C@@H](O)[C@@H]1O [Paromomycin, reference compound]")
1.39
>>> meas_value("O=C(COc1ccc(-c2cc(=O)c3ccccc3o2)cc1)N1CCNCC1")
1.69
>>> meas_value("O=c1cc(-c2ccc(OCCC3CCN(Cc4ccncc4)CC3)cc2)oc2ccccc12")
-0.52
>>> meas_value("CS(=O)(=O)NCCOCCOc1ccc(-c2cc(=O)c3ccccc3o2)cc1")
1.33
>>> meas_value("CN(C)CCOCCOc1ccc(-c2cc(=O)c3ccccc3o2)cc1")
0.04
>>> meas_value("O=c1cc(-c2ccc(OCCOCCN(CCOCCOc3ccc(-c4cc(=O)c5ccccc5o4)cc3)Cc3ccncc3)cc2)oc2ccccc12")
-0.68
>>> meas_value("N=C(N)c1ccc(OCCCCCOc2ccc(C(=N)N)cc2)cc1")
0.72
>>> meas_value("NCCOCCOc1ccc(-c2cc(=O)c3ccccc3o2)cc1")
1.54
>>> meas_value("O=c1cc(-c2ccc(OCCN3CCN(Cc4ccncc4)CC3)cc2)oc2ccccc12")
-0.15
>>> meas_value("CN(CCOc1ccc(-c2cc(=O)c3ccccc3o2)cc1)CCN(C)Cc1ccncc1")
0.32
>>> meas_value("O=C(COc1ccc(-c2cc(=O)c3ccccc3o2)cc1)N1CCCN(Cc2ccncc2)CC1")
0.26
>>> meas_value("O=c1cc(-c2ccc(OCCOCCNCc3ccncc3)cc2)oc2ccccc12")
0.43
>>> meas_value("O=C(COc1ccc(-c2cc(=O)c3ccccc3o2)cc1)N1CCN(C(=O)c2ccncc2)CC1")
1.94
>>> meas_value("O=c1cc(-c2ccc(OCCOCCN(CCOCCO)Cc3ccncc3)cc2)oc2ccccc12")
0.53
>>> meas_value("O=c1cc(-c2ccc(OCCOCCN(Cc3ccccn3)Cc3ccccn3)cc2)oc2ccccc12")
-0.30
